Below: a set of entries, each annotated with reported Stability in detergent measured by native DSF, 0.1% DDM.
Experiment: Stability of mini-G proteins in detergent by native DSF
Type: physicochemical
Details: 2 mg/ml, onset of scattering
assayMetric: Stability in detergent measured by native DSF, 0.1% DDM (°C)

| molecule | measuredNumber |
| --- | --- |
| Mini Gs393 (protein, N-terminal His tag, TEV site; MINI GS393) MGHHHHHHENLYFQGIEKQLQKDKQVYRATHRLLLLGADNSGKSTIVKQMRILHGGSGGSGGTSGIFETKFQVDKVNFHMFDVGGQRDERRKWIQCFNDVTAIIFVVDSSDYNRLQEALNDFKSIWNNRWLRTISVILFLNKQDLLAEKVLAGKSKIEDYFPEFARYTTPEDATPEPGEDPRVTRAKYFIRDEFLRISTASGDGRHYCYPHFTCAVDTENARRIFNDCRDIIQRMHLRQYELL | 39.1 |
| Mini-Go112: mini-G protein of Go1, construct 12; SEQ ID NO:113 (protein, Mini-Go112) MGHHHHHHENLYFQGIEKNLKEDGISAAKDVKLLLLGADNSGKSTIVKQMKIIHGGSGGSGGTTGIVETHFTFKNLHFRLFDVGGQRSERKKWIHCFEDVTAIIFCVDLSDYNRMHESLMDFDSICNNKFFIDTSIILFLNKKDLFGEKIKKSPLTICFPEYTGPNTYEDAAAYIQAQFESKNRSPNKEIYCHMTCATDTNNAQVIFDAVTDIIIANNLRGCGLY | 32.6 |
| Mini-Gs/i143: mini-Gs with 9 α5 helix mutations changing coupling specificity to Gi1; SEQ ID NO:111 (protein, Mini-Gs/i143) MGHHHHHHENLYFQGIEKQLQKDKQVYRATHRLLLLGADNSGKSTIVKQMRILHGGSGGSGGTSGIFETKFQVDKVNFHMFDVGGQRDERRKWIQCFNDVTAIIFVVDSSDYNRLQEALNDFKSIWNNRWLRTISVILFLNKQDLLAEKVLAGKSKIEDYFPEFARYTTPEDATPEPGEDPRVTRAKYFIRDEFLRISTASGDGRHYCYPHFTCAVDTENARRIFNDVTDIIIKMNLRDCGLF | 35.9 |
| Mini-G128: mini-G protein of G12, construct 8; SEQ ID NO:114 (protein, Mini-G128) MGHHHHHHENLYFQGIDALLARERRAVRRLVKILLLGADNSGKSTFLKQMRIIHGGSGGSGGTKGIVEHDFVIKKIPFKMVDVGGQRSQRQKWFQCFDGITSILFMVDSSDYNRLVESMNDFETIVNNKLFFNVSIILFLNKMDLLVEKVKTVSIKKHFPDFRGDPHRLEDVQRYLVQCFDRKRRNRSKPLFHHFTTAIDTENARFIFHAVKDTILQENLKDIMLQ | 41.2 |
| Mini-Gs/q70: mini-Gs with R380K Q384L R385Q H387N Q390E E392N L394V (protein) GIEKQLQKDKQVYRATHRLLLLGADNSGKSTIVKQMRILHGGSGGSGGTSGIFETKFQVDKVNFHMFDVGGQRDERRKWIQCFNDVTAIIFVVDSSDYNRLQEALNDFKSIWNNRWLRTISVILFLNKQDLLAEKVLAGKSKIEDYFPEFARYTTPEDATPEPGEDPRVTRAKYFIRDEFLRISTASGDGRHYCYPHFTCAVDTENARRIFNDCKDIILQMNLREYNLV | 36.2 |
